System: SN12C
Assay Procedure: NCI tumour cell line growth inhibition, 48 h
Calls of active or inactive are those of the source. Rule as the data show it: active = GI50 up to about 1.1 µM and inactive = higher.
Outcomes you can answer with include only these: active, inactive

Consider the worked cases shown below.
Molecule: COCCCNC(=O)C1=C(C)NC(C)=C(C(=O)NCCCOC)C1
Assay System: SN12C
Qualitative Label: inactive

Molecule: N#Cc1ccc(/C=N/C23CC4CC(CC(C4)C2)C3)cc1
Assay System: SN12C
Qualitative Label: inactive

Molecule: Oc1nc(CC(O)c2ccc(Cl)c(Cl)c2)cc(-c2ccccc2)n1 (centres undefined)
Assay System: SN12C
Qualitative Label: inactive

Molecule: N#CCCOc1cccc(C2(N3CCCCC3)CCCCC2)c1
Assay System: SN12C
Qualitative Label: inactive

Molecule: CCC1(CN(C)C)CC/C(=C\c2ccc3c(c2)OCO3)C1=O (centres undefined)
Assay System: SN12C
Qualitative Label: inactive

Please find the next molecule below.
How was CC(ON1[C@](C)(c2ccccc2)CC[C@@]1(C)c1ccccc1)c1ccccc1 (some centres undefined) classified in this test?
inactive

---

System: SN12C
Assay Procedure: NCI tumour cell line growth inhibition, 48 h
Activity calls are given as the source filed them. Rule as the data show it: active = GI50 up to about 1.1 µM and inactive = higher.
Parameter call: string, one of YES (active), NO (inactive)

Some solved cases for reference:
Compound: CCCN(CCC)C(=S)N/N=C(/C)c1ccccc1O
Qualitative Label: NO

Compound: C=C(Br)CN(CC(=C)Br)C(C)=O
Qualitative Label: NO

Compound: C[C@]12CC[C@H](OC(=O)Cc3ccc(N(CCCl)CCCl)cc3)CC1=CC[C@@H]1[C@@H]2CC[C@]2(C)C(=O)CC[C@@H]12
Qualitative Label: NO

Compound: O=C(O)CNC(=O)c1cccc2c(=O)c3ccccc3[nH]c12
Qualitative Label: NO

Compound: O=C(CCCl)NN=C1NCCCN1
Qualitative Label: NO

In this assay, the call recorded for O=C1NC(N2CCCC(CO)C2)=N/C1=C\c1ccc(O)cc1 (stereo unspecified) was what?
NO

Dear colleague, could you share the recorded outcome for CCOC(=O)CCC(NC(=O)c1ccc(NCc2ccc3nc(-c4ccccc4)c(Cl)nc3c2)cc1)C(=O)OCC (stereo unspecified) when you have a moment?
NO

Could you please tell me the result logged for `O=C(NCCNCCO)N/N=C/c1cccc([N+](=O)[O-])c1` in this assay?
NO

Which result was noted for this compound in the test: `c1csc(-c2cc(-c3cccs3)c(-c3cccs3)s2)c1`
NO

Which outcome did this test record for the compound Nc1ccn(C2(CO)C=C(CO)C(O)C2O)c(=O)n1 (stereo unspecified) ?
NO

Recorded test call requested for CCOC(=O)C(Cl)(NC(=O)c1c(F)c(F)c(F)c(F)c1F)C(F)(F)F (stereo unspecified)
NO

Kindly provide the recorded test outcome for the following compound: CC(=O)OCC1OC(Nc2ccc3nc(C)n(-c4ccccc4)c(=O)c3c2)C(OC(C)=O)C(OC(C)=O)C1OC(C)=O (stereo unspecified)
NO

Give the logged outcome of this assay for the following compound: `CCc1c(Cc2[nH]c(Cc3[nH]c(C=O)c(C)c3CC)c(CC)c2CC)[nH]c(C=O)c1C`
NO

Dear all, I need the recorded test outcome for C[C@]12CC[C@H](O)C[C@H]1CC[C@@H]1[C@@H]2CC[C@]2(C)[C@@H](C3=CC(=O)OC3)CC[C@]12O [DIGITOXIGENIN] , thank you.
YES

Outcome? `O=c1cc(NCc2ccncc2)[nH]c(=O)[nH]1`
NO

Can you look up the reported call for `O=C(Nc1nc2c(=O)[nH]cnc2s1)c1ccccc1` for me?
NO

Lab log entry: `COc1ccc(NC(=O)C(C#N)=C(SC)SC)cc1` — outcome as called in the assay?
NO

Tell me the assay call for `COc1cc(C=O)cc(/C=N/c2ccc(S(N)(=O)=O)cc2)c1O` please.
NO

Could you please tell me the result logged for CCC1CCC2c3c([nH]c4ccccc34)C3C(=O)N(c4ccc(OC)cc4)C(=O)C3C2C1 (stereo unspecified) in this assay?
NO

Per the records of this test, what outcome belongs to `Cc1cc(NS(=O)(=O)c2ccc(Nc3c4ccccc4nc4c(C(=O)NCCN(C)C)cccc34)cc2)no1` ?
NO

Hi team, can someone confirm the assay call for `CCOC(=O)N/N=C(/N)Cc1ccccc1` ?
NO

---

System: UO-31
Assay Procedure: NCI tumour cell line growth inhibition, 48 h
Active and inactive are the calls of the source. Rule as the data show it: active = GI50 up to about 1.1 µM and inactive = higher.
Outcomes you can answer with include only these: 1 (yes) for active, 0 (no) for inactive

Which outcome did this test record for the compound CCC1(CN(C)C)CC/C(=C\c2ccc3c(c2)OCO3)C1=O (stereo unspecified) ?
0 (no)

Which outcome was assigned to CC(C)C1=CC2=C(C(=O)C1=O)C13CCCC(C)(C)C1CC2OC3=O (stereo unspecified) in this test?
0 (no)

Assay result, entry `CCC(CC)NC1=C(NC(C)=O)C(=O)c2ccccc2C1=O` — outcome?
0 (no)

Check the results log: what was the call for Oc1nc(CC(O)c2ccc(Cl)c(Cl)c2)cc(-c2ccccc2)n1 (stereo unspecified) ?
0 (no)

Dear all, I need the recorded test outcome for `CC1(C)N=C(N)N=C(N)N1c1ccc(CCCCc2ccc(S(=O)(=O)F)cc2Cl)c(Cl)c1` , thank you.
0 (no)

In this assay, the call recorded for `NNC(=S)N/N=C(\C(=O)Nc1cccc(O)c1)C1C(=O)NC(=S)NC1=O` was what?
0 (no)

Entry `O=C(NCc1ccccc1Cl)c1c(O)c2ccccc2[nH]c1=O` : call = ?
0 (no)

Hi, do you know how Cc1cc(O)nc(NNC(C#N)c2ccc(O)cc2)n1 (stereo unspecified) came out in this test?
0 (no)

---

Tested on: DU-145
Assay Procedure: NCI tumour cell line growth inhibition, 48 h
Calls of active or inactive are those of the source. No stated cut-off is given here; in the data, active = GI50 up to about 1.1 µM and inactive = higher.
Readout: GI50

Molecule: O=C1NC(N2CCCC(CO)C2)=N/C1=C\c1ccc(O)cc1 (stereo not given)
Readout: GI50
Result: > 100 µM (inactive)
//
Molecule: COc1ccc(/C=c2/s/c(=C(\C#N)c3nc4ccccc4[nH]3)n(-c3ccccc3)c2=O)cc1
Readout: GI50
Result: 94.6 µM (inactive)
//
Molecule: CC1(C)C2CCC1(C)[C@H](O)[C@H]2Nc1cc(C(F)(F)F)cc(C(F)(F)F)c1 (stereo not given in full)
Readout: GI50
Result: 3.66 µM (inactive)
//
Molecule: Cc1ccc(/C=N/Nc2nc3ccccc3s2)s1
Readout: GI50
Result: > 100 µM (inactive)

Entry CCC1C(=O)C[C@H]2[C@@H]3C(O)CC4=CC(=O)CC[C@]4(C)[C@H]3CC[C@]12C (stereo not given in full) : reported GI50 = ?
> 50 µM (inactive)

---

Tested on: HOP-62
Assay Procedure: NCI tumour cell line growth inhibition, 48 h
The source made the active and inactive calls. Cut-off read from the data, not from the text of the source: active = GI50 up to about 1.1 µM and inactive = higher.
Pick from true (active), false (inactive) when you respond.

Worked cases, answers included:
Molecule: O=C1[C@@H]2[C@@H](CN3CN(c4ccccc4)N=C(c4ccccc4)[C@@]23c2ccccc2)C(=O)N1c1ccccc1
Assay System: HOP-62
Qualitative Label: false

Molecule: CCCN(CCCN)/[N+]([O-])=N\O
Assay System: HOP-62
Qualitative Label: false

Molecule: c1csc(-c2cc(-c3cccs3)c(-c3cccs3)s2)c1
Assay System: HOP-62
Qualitative Label: false

Recorded test call requested for `C[C@]12CC[C@H](OC(=O)Cc3ccc(N(CCCl)CCCl)cc3)CC1=CC[C@@H]1[C@@H]2CC[C@]2(C)C(=O)CC[C@@H]12`
false

What outcome does the record of this test show for `COc1ccc2oc(-c3cccnc3)cc(=O)c2c1` ?
false

Assay result, entry COc1cc(C=C2C(C)=NN(c3cccc(Cl)c3)C23C(Cl)C(=O)N3c2nc3ccccc3s2)ccc1O (stereo unspecified) — outcome?
false

// return assay outcome for `CC(C)(C)c1cc(C(P(=O)(O)O)P(=O)(O)O)cc(C(C)(C)C)c1O`
false

Just curious, what result did `CCCN1C(=O)CCC2=C1CCc1c2ccc(Cl)c1Cl` get here?
false

Please let me know the test result on file for `O=C(NCc1ccccc1Cl)c1c(O)c2ccccc2[nH]c1=O` .
false

What did the test return for CC12Nc3c(Cl)cc(Cl)cc3N1C(=O)c1ccccc12 (stereo unspecified) ?
false

Outcome? CC1OC(n2cc(F)c(=O)[nH]c2=O)CCC1O (stereo unspecified)
false

Which outcome did this test record for the molecule Oc1nc(CC(O)c2ccc(Cl)c(Cl)c2)cc(-c2ccccc2)n1 (stereo unspecified) ?
false

Lab log entry: `CCn1c(SCC(=O)N/N=C/c2ccccc2)nc2ccccc2c1=O` — outcome as called in the assay?
false

For this molecule, state the assay outcome: CC12CCC3C(CCC4=CC(O)CCC43C=O)C1(O)CCC2c1ccc(=O)oc1 (stereo unspecified)
true

Short answer needed: outcome of this test for CC1OC(=O)C(O)=C1O (stereo unspecified) ?
false

What is the recorded call for this molecule in the test? COc1cccc(C2c3cc4c(cc3OC(NNS(=O)(=O)c3ccc(C)cc3)C2C)OCO4)c1OC (stereo unspecified)
false

Which outcome was entered for the molecule `CC(=O)Nc1ccc(C2C(C(=O)Nc3ccccc3C)=C(C)NC(C)=C2C(=O)Nc2ccccc2C)cc1` in this test?
false

Dear colleague, could you share the recorded outcome for `COc1ccc2c(c1)O[C@H]1c3ccc(O)cc3OC[C@@H]21` when you have a moment?
false

Which outcome was entered for the molecule `O=C(CCCl)NN=C1NCCCN1` in this test?
false

In this assay, the call recorded for COP(=O)(CC(=O)C1OC(OCc2ccccc2)C(OCc2ccccc2)C(OCc2ccccc2)C1OCc1ccccc1)OC (stereo unspecified) was what?
false

Would you mind telling me which call this test gave CCN1CCC(O)(/C=C/c2ccccc2)C(C(=O)/C=C/c2ccccc2)C1 (stereo unspecified) ?
false

src = ChEMBL document CHEMBL1201862
